# TARGET SYSTEM: Aurora kinase C (Homo sapiens);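 also: reported value is a mean inhibition of Aurora-C from the GSK PKIS screening panel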
# TEST SETTINGS: at 1 µM
ENDPOINT NAME: inhibition
The reply should consist of the numeric value with the unit placed after it.

CN(C)CCCNc1nccc(-c2c(-c3ccc(F)cc3)nn3cc(C(F)(F)F)ccc23)n1	-0.03%
CN(C)c1ccc2c(c1)/C(=C/Nc1ccc(S(N)(=O)=O)cc1)C(=O)N2	48%
CN(c1ccc(NC(=O)Nc2c(Cl)cccc2Cl)cc1)c1ccnc(Nc2cccc(CS(C)(=O)=O)c2)n1	104%
CCS(=O)(=O)c1ccc(OC)c(Nc2ncc(-c3cccc(-c4ccccc4F)c3)o2)c1	-0.17%
COc1cc(N2CCN(C(C)C)CC2)ccc1Nc1nc(Nc2ccc(F)cc2C(=O)NC[C@@H](O)CO)c2cc[nH]c2n1	-7.09%

**Q:** Report inhibition for Nc1nccc(-c2c(-c3ccc(F)cc3)ncn2C2CCC(O)CC2)n1 (centres undefined) please.
**A:** -2.2%

**Q:** Report inhibition for `c1ccc(-c2n[nH]cc2-c2ccnc(-c3ccc(OCCN4CCOCC4)cc3)c2)nc1` please.
**A:** 18.2%

**Q:** Report inhibition for `Fc1ccc(-c2nc3n(c2-c2ccncc2)CCS3)cc1` please.
**A:** 13.6%

**Q:** Report inhibition for `Fc1ccc(-c2ncn(C3CCNCC3)c2-c2ccnc(Oc3ccc(F)c(F)c3)n2)cc1` please.
**A:** 4.92%

----------
# TARGET SYSTEM: MAP/microtubule affinity-regulating kinase 3 (Homo sapiens) (UniProt P27448)
# Sequence (P27448 whole entry, looked up): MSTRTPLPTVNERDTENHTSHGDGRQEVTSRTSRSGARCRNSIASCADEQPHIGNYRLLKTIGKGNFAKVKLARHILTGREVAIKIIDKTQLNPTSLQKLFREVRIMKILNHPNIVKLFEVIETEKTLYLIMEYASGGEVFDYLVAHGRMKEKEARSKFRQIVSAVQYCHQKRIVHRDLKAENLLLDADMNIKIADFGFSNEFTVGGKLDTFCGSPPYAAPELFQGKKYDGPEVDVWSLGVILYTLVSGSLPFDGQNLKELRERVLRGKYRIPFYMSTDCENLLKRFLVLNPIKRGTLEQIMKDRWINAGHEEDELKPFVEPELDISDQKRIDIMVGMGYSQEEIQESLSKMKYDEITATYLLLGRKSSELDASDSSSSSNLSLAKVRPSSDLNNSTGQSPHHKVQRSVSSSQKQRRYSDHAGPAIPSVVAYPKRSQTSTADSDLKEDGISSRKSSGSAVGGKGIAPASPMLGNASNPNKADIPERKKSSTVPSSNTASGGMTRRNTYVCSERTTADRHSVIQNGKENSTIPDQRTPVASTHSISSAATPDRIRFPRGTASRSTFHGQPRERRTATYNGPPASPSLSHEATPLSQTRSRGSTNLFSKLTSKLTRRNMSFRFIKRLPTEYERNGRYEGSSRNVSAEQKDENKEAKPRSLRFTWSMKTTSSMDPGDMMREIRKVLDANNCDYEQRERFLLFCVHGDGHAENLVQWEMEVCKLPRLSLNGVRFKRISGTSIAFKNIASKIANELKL
# TEST SETTINGS: at 0.1 µM
ENDPOINT NAME: inhibition (%)
Enter your answer as a number in %; do not include the unit.

CCc1nccc2c1nc(-c1nonc1N)n2CC	1

**Q:** // map `FC(F)(F)c1cccc(Nc2nccc(-c3cnn4nc(-c5ccccc5)ccc34)n2)c1` to recorded inhibition (system: MAP/microtubule affinity-regulating kinase 3 (Homo sapiens) (UniProt P27448))
**A:** 3.77

**Q:** // map `CN(c1ccc(NC(=O)Nc2c(Cl)cccc2Cl)cc1)c1ccnc(Nc2cccc(CS(C)(=O)=O)c2)n1` to recorded inhibition (system: MAP/microtubule affinity-regulating kinase 3 (Homo sapiens) (UniProt P27448))
**A:** 2.64

**Q:** // map `O=C(Nc1n[nH]c2nc(-c3ccco3)ccc12)C1CC1` to recorded inhibition (system: MAP/microtubule affinity-regulating kinase 3 (Homo sapiens) (UniProt P27448))
**A:** 3.27

**Q:** // map `COc1cc(C)c(N(C)C(=O)CN(C)C)cc1Nc1nc(Nc2cccc(F)c2C(N)=O)c2cc[nH]c2n1` to recorded inhibition (system: MAP/microtubule affinity-regulating kinase 3 (Homo sapiens) (UniProt P27448))
**A:** 3.34

**Q:** // map `Fc1ccc(-c2ncn(CCCN3CCOCC3)c2-c2ccncc2)cc1` to recorded inhibition (system: MAP/microtubule affinity-regulating kinase 3 (Homo sapiens) (UniProt P27448));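 also: mean percent inhibition of MARK3 kinase activity, measured within the GSK PKIS screening panel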
**A:** 2.21

----------
Each entry below lists one item and its recorded inhibition value.
# TARGET SYSTEM: cAMP-dependent protein kinase catalytic subunit alpha (Homo sapiens);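 also: mean percent inhibition of PKA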
# TEST SETTINGS: at 1 µM
Enter your answer as a number in %; do not include the unit.

Would you please look over these solved cases?
CN(C)CCCNc1nccc(-c2c(-c3ccc(F)cc3)nn3cc(C(F)(F)F)ccc23)n1	-2.98
Fc1ccc(-c2nc3n(c2-c2ccncc2)CCS3)cc1	0.45
COc1cc(Nc2ncc3c(C)nc(-c4cccc(Oc5ccccc5)c4)n3n2)cc(OC)c1OC	-0.04
COc1cccc(-n2cnc3c(N/N=C/c4ccncc4)ncnc32)c1	0.18

**Q:** Report inhibition for `C#Cc1cccc(Nc2ncnc3ccc(OCCCCNCCS(C)(=O)=O)cc23)c1` please.
**A:** -0.04
